Reference source: the supplement of paper PMC10567573

variants and their reported protein stability index
B1: LOXL2 (parent)
chain: RLLRFSSQIHNNGQSDFRPKNGRH

- Variants of: B1
- assay_comment: protein stability index of a GFP-peptide fusion (GPS, HEK-293T) (PSI 1-6); higher = more stable;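 also: lentivirally expressed fusions sorted by FACS into six bins by GFP to DsRed ratio, PSI derived from sequencing read proportions per bin multiplied by bin number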
- run_parameters: c terminus: a fixed tail appended

variant_description | protein stability index
N11K | 2.29
L2H | 4.21
S6T | 2.46
L3F | 3.05
S7T | 2.21
N21G | 2.49
D16I | 2.17
P19M | 2.21
P19I | 2.58
R4P | 3.86
H24R | 2.74
R18C | 2.42
Q14F | 1.8
S15T | 2.8
G13H | 3.06
P19R | 2.41
N12K | 2.65
G13E | 3.31
F17N | 3.42
S6N | 3.03
L3N | 3.98
L3T | 3.95
